- System: MDA-MB-231 breast
- EXPERIMENTAL DETAILS: NCI-60 one-dose screen, 48 h (100 = growth as untreated, 0 = no growth, -100 = all killed)
- APPLIED CONDITIONS: 10 µM unless noted
About 83,000 compounds went through this panel and 20% of them were active in at least one assay; those are over-represented in the sample as a whole.
Entries annotated with measured growth
Give the value, in units of %, as a plain number.

| MOLECULE | QUANTITATIVE READOUT |
| --- | --- |
| COc1ccc(-n2nc(C)c3c(Nc4ccc(NC(=O)Nc5ccc(Cl)c(C(F)(F)F)c5)cc4)ncnc32)cc1 | -25 |

Please indicate growth recorded for CC1=NN(c2nc(-c3ccc(Cl)cc3)c(C#N)c(N3CCOCC3)n2)C(=O)C1
91.9

Give the reported value of growth for this record: O=C1NC(=Nc2ccc(O)cc2)S/C1=C\c1cccc(Cl)c1
96.2

Identify the reported growth for the following entry. O=S(=O)(Nc1ccc(I)cc1F)c1ccc(-c2cnc(C3CC3)o2)cc1
61

Give a short answer stating reported growth for COc1ccc(C(=O)c2sc3nc(C)cc(C)c3c2N)cc1OC .
56.3

Identify measured growth corresponding to Cc1cc2c3ccccc3ccc2[n+]2ccccc12
81.6

For the molecule C=C(C)C(=O)Nc1ccc(NC(C)C)cc1 , report growth.
123

Give a short answer stating reported growth for COc1cccc(/C=C2\SC(=Nc3ccc(NC(C)=O)cc3)NC2=O)c1OC .
102

Please report the measured growth for O=C(/C=C/C=C/c1ccc2c(c1)OCO2)N/N=C\c1ccc(O)cc1O
34.4

Identify measured growth associated with COc1cc2c(cc1-c1c(C)noc1C)ncc1nc(C3CCOCC3)n([C@@H](C)COC(F)F)c12
42.8

Output growth of CCOC(=O)c1sc(Nc2ccc(Cl)cc2)nc1C
1.04

###

Each entry below lists one item and its recorded growth value.
- Tested on: SNB-75 CNS
- EXPERIMENTAL DETAILS: NCI-60 one-dose screen, 48 h (100 = growth as untreated, 0 = no growth, -100 = all killed)
- APPLIED CONDITIONS: 10 µM unless noted
About 83,000 compounds went through this panel and 20% of them were active in at least one assay; those are over-represented in the sample as a whole. Activity calls are given as the source filed them. Rule for the calls: active = growth percent below 10; inactive = the rest.

Below are worked cases with known answers.
| COMPOUND | growth |
| --- | --- |
| CCOc1cc2ncc(C#N)c(Nc3ccc(F)c(Cl)c3)c2cc1NC(=O)CC1CCSS1 (centres undefined) | -72% (active) |
| CNC(=O)c1cc(Oc2ccc(NC(=O)Nc3ccc(Cl)c(OC(F)(F)F)c3)c(F)c2)ccn1 | 83% (inactive) |
| O=C(/C=C/c1cccc([N+](=O)[O-])c1)c1ccc(O)c(CN2CCN(c3cc4c(cc3F)c(=O)c(C(=O)O)cn4C3CC3)CC2)c1 | 31.1% (inactive) |
| C=CC(=O)Nc1cccc(-c2nc(SC)nc(Nc3cccc(OC)c3)c2C#N)c1 | 18% (inactive) |
| COc1cc2c(cc1O)CC[C@@H]1[C@@H]2CC[C@]2(C)[C@@H](OCCN(C)C)CC[C@@H]12 | 17.8% (inactive) |
| O=C1C=CC(=O)N1c1ccc2c(c1)Cc1cc(F)ccc1-2 | 75.8% (inactive) |

Give me measured growth, please, for this compound: Cn1cc(C(=O)c2nc(-c3c[nH]c4ccc(F)cc34)no2)c2cc(F)ccc21
79.8% (inactive)

Find the measured growth of Cn1cc(-c2nonc2-c2cn(C)c3ccc(F)cc23)c2cc(F)ccc21 and report it.
53.8% (inactive)

Look up growth of CCCCn1cnc2c(Sc3c([N+](=O)[O-])ncn3C)nc(N)nc21 and report it.
84.3% (inactive)

###

- Test system: MDA-MB-435 melanoma
- EXPERIMENTAL DETAILS: NCI-60 one-dose screen, 48 h
- APPLIED CONDITIONS: 10 µM unless noted
Compounds without any hit were thinned out: in the full panel of roughly 83,000, 20% have a hit. Calls of active or inactive are those of the source. Rule for the calls: active = growth percent below 10; inactive = the rest.
Use one of these outcomes when replying: y (active), n (inactive)

Would you mind telling me which call this test gave COc1ccc(CN2c3ccccc3Oc3ccccc32)cc1F ?
y

So what was the verdict on COc1cc2nc(N3CCCC3)nc(NCC3CCCCC3)c2cc1OC in this test?
y

Please state the recorded outcome for this compound: C[n+]1ccccc1/C=C/c1ccc2cccc(O)c2n1
n

Hi team, can someone confirm the assay call for Cn1c(=O)c2c(nc3n(-c4ccc(Cl)cc4Cl)c(Sc4nc(-c5ccccc5)c(C#N)c(=O)[nH]4)cn23)n(C)c1=O ?
n

Answer briefly: the call reported for N#Cc1c(N)n(CCNC(=O)c2ccccc2)c2nc3ccccc3nc12 in this assay.
n

###

- System: A498 renal
- EXPERIMENTAL DETAILS: NCI-60 one-dose screen, 48 h (100 = growth as untreated, 0 = no growth, -100 = all killed)
- APPLIED CONDITIONS: 10 µM unless noted
About 83,000 compounds went through this panel and 20% of them were active in at least one assay; those are over-represented in the sample as a whole.
This listing pairs compounds with measured growth.
# output: bare number, implied unit %

| COMPOUND | MEASUREMENT TYPE | QUANTITATIVE READOUT |
| --- | --- | --- |
| OCCN1CCN(c2nc(Nc3ccc(-c4nc5ccccc5[nH]4)cc3)c3cn[nH]c3n2)CC1 | growth | -78.8 |
| CCCN1CCN(c2ccc3nc(-c4ccc5nc(-c6ccc(OCC)cc6)[nH]c5c4)[nH]c3c2)CC1 | growth | 65.6 |
| CCCCC/C(C=C(C#N)C#N)=C/c1ccccc1 | growth | 112 |

Check the records and state growth for O=C1NC(=Nc2ccc(O)cc2)S/C1=C\c1cccc(Cl)c1
50.1

Quickly give me recorded growth for FC(F)(F)Oc1ccc2nc3nc4ccc[nH]c4cc3c2c1
98.1

Dear colleague, please send me the reported growth for COc1ccc(C2CC(c3ccc4ccccc4c3)=NN2/C=C2\SC(=S)N(NC(=O)Cc3ccccc3Nc3c(Cl)cccc3Cl)C2=O)cc1 (centres undefined) when you can.
-0.474

Determine its reported growth: O=c1c(F)cn(Cc2ccccc2CCl)c(=O)n1Cc1ccccc1CCl
76.3

Read off the recorded growth for CC/C=C\C[C@H]1C/C=C2/C(=O)C=C[C@H]2C/C=C\CCCC(=O)O1
79.5

Tell me growth reported for O=C1/C(=C/c2cn(-c3ccccc3)nc2-c2ccccc2)SC(=S)N1CCc1ccccc1
95.7

Supply reported growth belonging to this compound: CC/C=C\C/C=C\C[C@H]1C/C=C2/C(=O)C=C[C@@H]2C/C=C\CCC(=O)O1
20.7

Identify growth associated with the compound COc1ccc(-c2nnc(SCC(=O)c3ccc(Cl)cc3)o2)cc1
100

# return recorded growth for input COc1cc(C=Nc2oc(-c3ccccc3)c(-c3ccccc3)c2C#N)cc(CN2CCCCC2)c1O
72.3

Consider the compound COc1ccc(-c2nc(SCC(=O)Nc3ccc(C(=O)/C=C/c4ccc(Cl)cc4)cc3)[nH]c(=O)c2C#N)cc1 . State its measured growth.
101

Given the compound COc1cc(-c2nn(-c3ccc(Br)cc3)cc2C(=O)O)ccc1O , write its reported growth.
107

###

Catalogue of growth readings, one per entry.
- Tested on: OVCAR-3 ovarian
- EXPERIMENTAL DETAILS: NCI-60 one-dose screen, 48 h (100 = growth as untreated, 0 = no growth, -100 = all killed)
- APPLIED CONDITIONS: 10 µM unless noted
About 83,000 compounds went through this panel and 20% of them were active in at least one assay; those are over-represented in the sample as a whole.
Response body: numeric value in %, unit text excluded.

Here's what some known entries look like.
| STRUCTURE SMILES | growth / % |
| --- | --- |
| O=c1c(F)cn(Cc2ccccc2CCl)c(=O)n1Cc1ccccc1CCl | -44.6 |
| CC(C)(O)c1cn(CCCCN2C(=O)C(=O)c3ccccc32)nn1 | 109 |
| O=S(=O)(Nc1ccc(NS(=O)(=O)c2ccccc2)c(Cl)c1)c1ccccc1 | 104 |
| O=C1/C(=C/c2cn(-c3ccccc3)nc2-c2ccccc2)SC(=S)N1CCc1ccccc1 | 107 |
| COc1cccc(-c2nn(C(C)(C)C)cc2-c2ccnc(NCCCNS(=O)(=O)c3ccc(C)cc3)c2)c1 | 122 |

Recall the reported growth of O=C(C(=O)c1ccc2c(c1)OCO2)c1ccc2c(c1)OCO2 on OVCAR-3 ovarian and write it down.
105

Under OVCAR-3 ovarian, report growth for CN1CCN=C1c1ccc(NC(=O)c2ccc(C(=O)Nc3ccc(C4=NCCN4C)cc3)cc2)cc1
109

Give measured growth for Cc1[nH]c(-c2ccc3cc[nH]c3c2)c2c1C(=O)CCCC2 (OVCAR-3 ovarian).
51

Lab note: OVCAR-3 ovarian assay, enter growth for COc1ccc2nc(NC(=O)CSc3nnc4n3S(=O)(=O)c3ccccc3N4c3ccccc3)sc2c1 here
104

Lab note: record growth of Cc1ccccc1COc1ccc(-c2onc(C)c2-c2ccc(Cl)cc2)cc1 tested on OVCAR-3 ovarian.
20.7
